# target.or.test.system: Ras farnesyl transferase (Rattus norvegicus, UniProt Q02293+Q04631)
# Construct: endogenous in cells; host or cells: Rat2 fibroblasts transformed with H-Ras or with an H-Ras/K-Ras C-terminus fusion
# test.details: In vivo (cellular) inhibitory activity for Ras farnesyl transferase, Rat2 cell line transformed with fused protein of H-Ras substituted with polybasic lysine domain at C-terminus of K-Ras
# Format: cell-based
# applied.conditions: Rat2 cell line transformed with H-Ras fused with polybasic lysine domain of K-Ras C-terminus; concentration inhibiting 50% of farnesyl bonding; read-out: K-Ras CIC50
# Experimental: In the present experiment, Rat2 cell line which expresses C-Harvey-Ras protein having transforming activity and Rat2 cell line (Korean patent application No. 97-14409) which is transformed with fused protein of H-Ras substituted with polybasic lysine domain at C-terminus of K-Ras were used. The experiment was performed by the modified Declue's method (Declue. J. E. et al., Cancer Research, 1991, 51, 712). Hereinafter, the experimental method will be described in more detail. […]
Here the recorded IC50 is given for each entry.

Data request: Returns the measured IC50 for the input compound. Input: "C[C@@H](c1ccccc1)n1cncc1Cn1cc(C(=O)N2CCOCC2)c(-c2cccc3ccccc23)c1"
Data returned: 10 to 50 µM

Data request: Need IC50, item "CN1CCN(C(=O)c2cn(Cc3cncn3CCCc3ccccc3)cc2-c2cccc3ccccc23)CC1"
Data returned: 10 to 30 µM

Data request: Look at this compound and give its reported IC50. "CN1CCN(C(=O)c2cn(Cc3cncn3CCc3ccc(O)cc3)cc2-c2cccc3ccccc23)CC1"
Data returned: 5 to 10 µM

Data request: # IC50 lookup, item "O=C(c1ccccc1Cl)c1cn(Cc2c[nH]cn2)cc1-c1cccc2ccccc12"
Data returned: 10 to 100 µM

Data request: Return reported IC50; argument: "CSCc1cccc(C(=O)c2cn(Cc3c[nH]cn3)cc2-c2cccc3ccccc23)c1"
Data returned: 10 to 100 µM

Data request: Which value of IC50 has been reported for "CN(CCO)C(=O)c1cn(Cc2c[nH]cn2)cc1-c1cccc2ccccc12" in the records?
Data returned: 10 to 100 µM

Data request: Consider the compound shown here: "Cn1cncc1Cn1cc(C(=O)N2CCOCC2)c(-c2cccc3ccccc23)n1" What is its recorded IC50?
Data returned: > 50 µM

Data request: What measured IC50 goes with "O=C(c1ccccc1)c1cn(Cc2c[nH]cn2)cc1-c1cccc2ccccc12" ?
Data returned: 10 to 100 µM

Data request: # lookup: IC50 of CC(c1ccccc1)n1cncc1Cn1cc(C(=O)N2CCN(C)CC2)c(-c2cccc3ccccc23)c1 (stereo in doubt)
Data returned: 10 to 50 µM

Values were extracted from patent US6472526B1.
